Catalogue of molecules with associated clearance
experimental-details: Pharmacokinetics after intravenous peptide administration in mice
Set-up: species or system C57BL/6 mice
condition-set: mouse, in vivo; C57BL/6 mice, IV 2 mg/kg, formulation of 0.4 mg/mL; read-out: CL
Procedure: GPR-10 and peptides were dosed IV at 2 mg/kg as a formulation of 0.4 mg/mL in […]+65% water (pH 6-7).
Starred links: 1 amine or outer side, 2 acyl side, 3 side chain; linkers in the order of their positions; H or OH if unused. Non-standard residues stand in square brackets, D forms with d. Residues, ends and D or L forms follow the SMILES beside them. *: point of attachment. Trp(7-Me) = Cc1cccc2c(C[C@H](N)C(=O)O)c[nH]c12; C20 diacid = O=C(O)CCCCCCCCCCCCCCCCCCC(=O)*; d(γGlu) = O=C(O)[C@@H](CCC(=O)[*:2])N[*:1]; C18 diacid = O=C(O)CCCCCCCCCCCCCCCCC(=O)*; γGlu = O=C(O)[C@H](CCC(=O)[*:2])N[*:1]; Nle = CCCC[C@H](N)C(=O)O; AEEA = NCCOCCOCC(=O)O; βAla = NCCC(=O)O
Quick reminder: number only, in L/h/kg, skip the unit.

The cases that follow already have their clearance on record.
molecule	clearance [L/h/kg]
CCCCCCCCCCCCCCCC(=O)N[C@H](CCC(=O)NCCOCCOCC(=O)NCCOCCOCC(=O)NCC(=O)N[C@@H](CC(N)=O)C(=O)N[C@@H](Cc1c[nH]cn1)C(=O)N[C@@H](Cc1c[nH]c2ccccc12)C(=O)N[C@@H](C)C(=O)N[C@H](C(=O)NCC(=O)N[C@@H](Cc1c[nH]cn1)C(=O)N[C@@H](CC(C)C)C(=O)N[C@@H](CCSC)C(N)=O)C(C)C)C(=O)O [Peptide 8]	0.072
CCCC[C@H](NC(=O)[C@H](CC(C)C)NC(=O)[C@H](Cc1c[nH]cn1)NC(=O)CCNC(=O)[C@@H](NC(=O)[C@H](C)NC(=O)[C@H](Cc1c[nH]c2ccccc12)NC(=O)[C@H](Cc1c[nH]cn1)NC(=O)[C@H](CCC(N)=O)NC(=O)CNC(=O)COCCOCCNC(=O)COCCOCCNC(=O)CC[C@H](NC(=O)CCCCCCCCCCCCCCCCCCC(=O)O)C(=O)O)C(C)C)C(N)=O [Peptide 241] ({C20 diacid-γGlu-AEEA-AEEA}-GQHWAV[βAla]HL[Nle]-NH2)	0.0138
CCCC[C@H](NC(=O)[C@H](CC(C)C)NC(=O)[C@H](Cc1c[nH]cn1)NC(=O)CCNC(=O)[C@@H](NC(=O)[C@H](C)NC(=O)[C@H](Cc1c[nH]c2c(C)cccc12)NC(=O)[C@H](Cc1c[nH]cn1)NC(=O)[C@H](CCCNC(=N)N)NC(=O)CNC(=O)[C@H](CCC(=O)O)NC(=O)COCCOCCNC(=O)COCCOCCNC(=O)CC[C@H](NC(=O)CC[C@H](NC(=O)CCCCCCCCCCCCCCCCCCC(=O)O)C(=O)O)C(=O)O)C(C)C)C(N)=O [Peptide 252] ({C20 diacid-γGlu-γGlu-AEEA-AEEA}-EGRH[Trp(7-Me)]AV[βAla]HL[Nle]-NH2)	0.0072

Sample CCCC[C@H](NC(=O)[C@H](CC(C)C)NC(=O)[C@H](Cc1c[nH]cn1)NC(=O)[C@@H](C)NC(=O)[C@@H](NC(=O)[C@H](C)NC(=O)[C@H](Cc1c[nH]c2ccccc12)NC(=O)[C@H](Cc1c[nH]cn1)NC(=O)[C@H](CC(N)=O)NC(=O)CNC(=O)COCCOCCNC(=O)COCCOCCNC(=O)CC[C@@H](NC(=O)CCCCCCCCCCCCCCCCC(=O)O)C(=O)O)C(C)C)C(N)=O [Peptide 9] ({C18 diacid-d(γGlu)-AEEA-AEEA}-GNHWAV[dA]HL[Nle]-NH2) — what was its clearance?
0.03

Sample CCCC[C@H](NC(=O)[C@H](CC(C)C)NC(=O)[C@H](Cc1c[nH]cn1)NC(=O)CCNC(=O)[C@@H](NC(=O)[C@H](C)NC(=O)[C@H](Cc1c[nH]c2c(C)cccc12)NC(=O)[C@H](Cc1c[nH]cn1)NC(=O)[C@H](CCC(=O)O)NC(=O)CNC(=O)[C@H](CO)NC(=O)COCCOCCNC(=O)COCCOCCNC(=O)CC[C@H](NC(=O)CC[C@H](NC(=O)CCCCCCCCCCCCCCCCCCC(=O)O)C(=O)O)C(=O)O)C(C)C)C(N)=O [Peptide 255] ({C20 diacid-γGlu-γGlu-AEEA-AEEA}-SGEH[Trp(7-Me)]AV[βAla]HL[Nle]-NH2) — what was its clearance?
0.0054

Sample CCCC[C@H](NC(=O)[C@H](CC(C)C)NC(=O)[C@H](Cc1c[nH]cn1)NC(=O)CCNC(=O)[C@@H](NC(=O)[C@H](C)NC(=O)[C@H](Cc1c[nH]c2c(C)cccc12)NC(=O)[C@H](Cc1c[nH]cn1)NC(=O)[C@H](CCC(N)=O)NC(=O)[C@H](CO)NC(=O)[C@H](CCC(=O)O)NC(=O)COCCOCCNC(=O)COCCOCCNC(=O)CC[C@H](NC(=O)CC[C@H](NC(=O)CCCCCCCCCCCCCCCCCCC(=O)O)C(=O)O)C(=O)O)C(C)C)C(N)=O [Peptide 257] ({C20 diacid-γGlu-γGlu-AEEA-AEEA}-ESQH[Trp(7-Me)]AV[βAla]HL[Nle]-NH2) — what was its clearance?
0.0054
